- System: MDA-N
- protocol: NCI tumour cell line growth inhibition, 48 h
Active and inactive are the calls of the source. Rule as the data show it: active = GI50 up to about 1.1 µM and inactive = higher.
Here the recorded GI50 is given for each entry.

// below: answered compounds
compound | target_or_system | GI50
COC1C(=O)N(SC)C1c1ccccc1Cl (stereo not drawn) | MDA-N | 34.6 µM (inactive)
COCCCN1C(=O)C2c3[nH]c4ccccc4c3C3CCC(C(C)(C)C)CC3C2C1=O (stereo not drawn) | MDA-N | 35.6 µM (inactive)

Ask | Tell me the measured GI50 of NC1=NC(c2ccc(Cl)cc2)N(c2ccc(S(=O)(=O)Nc3ncccn3)cc2)C(N)=N1 (stereo not drawn) , please.
Reply | > 100 µM (inactive)
